biological target: gp41 hydrophobic pocket (FeII(env2.0)3) (Human immunodeficiency virus type 1 group M subtype B, UniProt P04578); experiment: Fluorescence intensity binding affinity assay, displacement of C18FL from FeII; parameters: species or system HIV-1
Sequence (P04578 565-584): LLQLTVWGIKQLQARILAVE
Ki by entry:
Please respond with the number in µM and leave the unit unwritten.

1. CCOC(=O)c1cc(O)n(-c2ccc(C(=O)O)cc2)n1
177

Q. Quick check: Ki of Cn1ncc2ccc(-c3ccc4cnn(Cc5ccc(F)c(C(=O)O)c5)c4c3)cc21 ?
A. 25

* * *

assay: Resazurin cell viability assay run concomitantly with the fusion assays; format: cell-based; conditions: human, TZM-bl cells, in antiviral assay; approximated; read-out: Antiviral Activity CC50
assayEndpoint: CC50

# annotated cases, reported CC50 shown
1. COC(=O)c1cccc(Cn2ccc3ccc(-c4ccc5ccn(Cc6cccc(C(=O)O)c6)c5c4)cc32)c1 [Compound 1]
22 µM
2. CCOC(=O)c1cc(O)n(-c2ccc(C(=O)Oc3c(F)c(F)c(S(=O)(=O)O)c(F)c3F)cc2)n1 [Compound 3-STP]
> 40 µM
3. Cn1ncc2ccc(-c3ccc4cnn(Cc5ccc(F)c(C(=O)Oc6c(F)c(F)c(S(=O)(=O)O)c(F)c6F)c5)c4c3)cc21 [Compound 2-STP]
≥ 100 µM
4. Cn1ncc2ccc(-c3ccc4cnn(Cc5ccc(F)c(C(=O)O)c5)c4c3)cc21 [Compound 2]
≥ 356 µM
5. COC(=O)c1cccc(Cn2ccc3ccc(-c4ccc5ccn(Cc6cccc(C(=O)Oc7c(F)c(F)c(S(=O)(=O)O)c(F)c7F)c6)c5c4)cc32)c1 [Compound 1-STP]
20 µM

Next compound, CC50 to be filled in.
Q. Given CCOC(=O)c1cc(O)n(-c2ccc(C(=O)O)cc2)n1 [Compound 3] , state its recorded CC50.
A. > 100 µM
